Test system: Plutella xylostella
method_notes: Plutella xylostella (diamond back moth), artificial diet, L2 larvae
Format: in vivo
recorded_conditions: 120 h, application rate 200 ppm, 5 days after infestation, L2 larvae, read-out: effect in at least one of the two categories (mortality or growth inhibition)
Exercise: for every item that follows, state its recorded percent effect (mortality or growth inhibition) at 200 ppm.

Worked examples, 2 molecules total:
| molecule | value_measured |
| --- | --- |
| Cc1cc(C2=NCC(c3cc(Cl)cc(Cl)c3)(C(F)(F)F)C2)ccc1C(=O)NC1CON(S(C)(=O)=O)C1 (stereo not drawn) | ≥ 80% |
| Cc1cc(C2=NS[C@@](c3cc(Cl)cc(Cl)c3)(C(F)(F)F)C2)ccc1C(=O)N[C@H]1CON(S(=O)(=O)N(C)C)C1 | ≥ 80% |

Fill in reported percent effect (mortality or growth inhibition) at 200 ppm for this entry: Cc1cc(C2=NCC(c3cc(Cl)c(Cl)c(Cl)c3)(C(F)(F)F)C2)ccc1C(=O)NC1CON(S(C)(=O)=O)C1 (stereo not drawn)
≥ 80%
